study-target: T1, human CD40 extracellular domain with C-terminal His-AviTag (human, UniProt P25942 21-193)
T1 construct: not shown: C-terminal His-AviTag
T1 sequence (P25942 21-193): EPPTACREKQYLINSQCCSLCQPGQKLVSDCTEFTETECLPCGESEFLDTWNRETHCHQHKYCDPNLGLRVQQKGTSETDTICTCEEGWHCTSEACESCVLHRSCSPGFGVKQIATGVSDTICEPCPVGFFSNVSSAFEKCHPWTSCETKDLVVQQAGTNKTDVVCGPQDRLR
protocol-details: SPR, antibody captured, CD40 ECD analyte;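 note: biacore SPR at 25 °C in PBS-T pH 7.4, CD40 ECD analyte from 300 nM in 1:3 series, 300 s association, up to 1200 s dissociation, double-referenced, Langmuir 1:1 fit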
readout-kind: kon (M⁻¹ s⁻¹)
Please reply with the bare figure in M⁻¹ s⁻¹ and do not write the unit itself.

[Q] Bench note: what kon did P1AE0400, humanized anti-CD40 antibody VH2a/VL2a, huIgG1_LALA_PG (antibody, V domains shown, also called VL2a/VH2a) VH: EVQLLESGGGLVQPGGSLRLSCAASGYSFTGYYIHWVRQAPGKGLEWVGRVIPNAGGTSYNQKFKGRFTISVDNSKNTAYLQMNSLRAEDTAVYYCAREGIYWWGQGTTVTVSS VL: DIQMTQSPSSLSASVGDRVTITCRSSQSLVHSNGNTFLHWYQQKPGKAPKLLIYTVSNRFSGVPSRFSGSGSGTDFTLTISSLQPEDFATYFCSQTTHVPWTFGGGTKVEIKR show?
[A] 1.68e+06

[Q] Lookup P1AE0404, humanized anti-CD40 antibody VH2a/VL2b, huIgG1_LALA_PG (antibody, V domains shown, huIgG1 with effector silent Fc (P329G, L234A, L235A); also called VL2b/VH2a) VH: EVQLLESGGGLVQPGGSLRLSCAASGYSFTGYYIHWVRQAPGKGLEWVGRVIPNAGGTSYNQKFKGRFTISVDNSKNTAYLQMNSLRAEDTAVYYCAREGIYWWGQGTTVTVSS VL: DIQMTQSPSSLSASVGDRVTITCRSSQSLVHSNGNTFLHWYQQKPGQSPKLLIYTVSNRFSGVPSRFSGSGSGTDFTLTISSLQPEDFATYFCSQTTHVPWTFGGGTKVEIK
[A] 1.63e+06

[Q] Lookup P1AE1002, humanized anti-CD40 antibody VH1b/VL1a, huIgG1_LALA_PG (antibody, V domains shown, huIgG1 with effector silent Fc (P329G, L234A, L235A)) VH: QVQLVQSGAEVKKPGASVKVSCKASGYSFTGYYIHWVRQAPGKSLEWMGRVIPNAGGTSYNQKFKGRVTLTVDKSISTAYMELSRLRSDDTAVYYCAREGIYWWGQGTTVTVSS VL: DIVMTQTPLSLSVTPGQPASISCRSSQSLVHSNGNTFLHWYLQKPGQSPQLLIYTVSNRFSGVPDRFSGSGSGTDFTLKISRVEAEDVGVYFCSQTTHVPWTFGGGTKVEIK
[A] 2.54e+06

[Q] Lookup P1AE0998, humanized anti-CD40 antibody VH1c/VL1d, huIgG1_LALA_PG (antibody, V domains shown, huIgG1 with effector silent Fc (P329G, L234A, L235A)) VH: QVQLVQSGAEVKKPGASVKVSCKASGYSFTGYYIHWVRQAPGQSLEWMGRVIPNAGGTSYNQKFKGRVTLTVDKSISTAYMELSRLRSDDTAVYYCAREGIYWWGHGTTVTVSS VL: DVVVTQTPLSLSVTPGQPASISCRSSQSLVHSNGNTFLHWYLQKPGQSPQLLIYTVSNRFSGVPDRFSGSGSGTDFTLKISRVEAEDVGVYFCSQTTHVPWTFGGGTKLEIK
[A] 2.7e+06

[Q] Lookup P1AE1006, humanized anti-CD40 antibody VH1c/VL1b, huIgG1_LALA_PG (antibody, V domains shown, huIgG1 with effector silent Fc (P329G, L234A, L235A)) VH: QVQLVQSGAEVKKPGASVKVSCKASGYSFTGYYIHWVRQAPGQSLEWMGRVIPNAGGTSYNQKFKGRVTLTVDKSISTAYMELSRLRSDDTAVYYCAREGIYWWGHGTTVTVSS VL: DIVVTQTPLSLSVTPGQPASISCRSSQSLVHSNGNTFLHWYLQKPGQSPQLLIYTVSNRFSGVPDRFSGSGSGTDFTLKISRVEAEDVGVYFCSQTTHVPWTFGGGTKVEIK
[A] 2.53e+06
